pIC50, Carboxylic ester hydrolase (Equus caballus, UniProt Q9N1N9), per-entry values.
The read-out pIC50 is expressed as -log10 of concentration in moles per litre.

compound	pIC50
CC(=O)NC(Cc1ccc(F)cc1)C(=O)Oc1ccccc1 (stereo unspecified)	5.08
CC(=O)NC(Cc1ccc(F)cc1)C(=O)Oc1ccc([N+](=O)[O-])cc1 (stereo unspecified)	3.90
CC(=O)NC(Cc1cccc(F)c1)C(=O)Oc1ccc(Cl)cc1 (stereo unspecified)	4.28
CC(=O)NC(Cc1cccc(F)c1)C(=O)Oc1ccc(C)cc1 (stereo unspecified)	4.04
CC(=O)NC(Cc1cccc(F)c1)C(=O)Nc1ccccc1 (stereo unspecified)	3.80

Turning now to a further compound:
**Query** What is its pIC50 for Carboxylic ester hydrolase (Equus caballus, UniProt Q9N1N9)? Entry: CC(=O)NC(Cc1ccc(F)cc1)C(=O)Nc1ccc(C(F)(F)F)cc1 (stereo unspecified)
**Result** 3.54

---

pIC50, Acetylcholinesterase (Electrophorus electricus, UniProt O42275), per-entry values.
The read-out pIC50 is expressed as -log10 of concentration in moles per litre.

Field: example entries. Status: answers known.
compound	pIC50
CC(=O)NC(Cc1cccc(F)c1)C(=O)Oc1ccccc1 (stereo not given)	4.06
CC(=O)NC(Cc1ccc(F)cc1)C(=O)Nc1ccc(C)cc1 (stereo not given)	4.16
CC(=O)NC(Cc1cccc(F)c1)C(=O)Oc1ccc(C)cc1 (stereo not given)	4.16
CC(=O)NC(Cc1ccc(F)cc1)C(=O)Oc1ccc(C)cc1 (stereo not given)	4.13

**Query** What is its pIC50 for Acetylcholinesterase (Electrophorus electricus, UniProt O42275)? Entry: CC(=O)NC(Cc1ccccc1F)C(=O)Oc1ccccc1 (stereo not given)
**Result** 4.10

---

# system_name: Acetylcholinesterase (Electrophorus electricus)
# Sequence (O42275 whole entry): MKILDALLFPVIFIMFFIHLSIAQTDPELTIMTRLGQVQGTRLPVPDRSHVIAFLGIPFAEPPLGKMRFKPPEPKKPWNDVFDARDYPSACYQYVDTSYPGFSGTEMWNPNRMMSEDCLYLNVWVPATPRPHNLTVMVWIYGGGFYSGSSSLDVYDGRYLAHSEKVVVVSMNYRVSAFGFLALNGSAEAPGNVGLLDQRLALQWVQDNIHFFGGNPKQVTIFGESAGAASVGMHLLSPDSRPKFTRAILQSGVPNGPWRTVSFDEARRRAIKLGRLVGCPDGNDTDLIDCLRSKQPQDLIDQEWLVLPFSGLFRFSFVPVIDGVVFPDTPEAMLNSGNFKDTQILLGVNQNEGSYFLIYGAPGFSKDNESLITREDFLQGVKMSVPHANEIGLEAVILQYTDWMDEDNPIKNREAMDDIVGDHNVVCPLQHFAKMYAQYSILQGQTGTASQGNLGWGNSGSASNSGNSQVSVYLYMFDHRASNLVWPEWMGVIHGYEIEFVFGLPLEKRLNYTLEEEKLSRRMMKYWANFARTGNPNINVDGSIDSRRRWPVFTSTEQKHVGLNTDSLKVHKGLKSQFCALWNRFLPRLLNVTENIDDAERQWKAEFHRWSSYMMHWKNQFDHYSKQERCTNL
For each record, check the reported IC50: if it is below 70 µM write Met, else write Not met.

Reference set, count: 2
compound	answer_label
CC(=O)NC(Cc1ccccc1F)C(=O)Nc1ccc([N+](=O)[O-])cc1 (stereo not given)	Met
CC(=O)NC(Cc1ccccc1F)C(=O)Oc1ccc([N+](=O)[O-])cc1 (stereo not given)	Not met

**Query** Could you please tell me whether IC50 recorded for CC(=O)NC(Cc1ccc(F)cc1)C(=O)Nc1ccc([N+](=O)[O-])cc1 (stereo not given) is less than 70 µM?
**Result** Met
